Sourced from the supplement of paper PMC11451515

The entries below come with measured cell viability values attached.
# Tested on: NOMO1
# protocol summary: cell viability relative to DMSO control; higher = less cytotoxic
# experimental parameters: RPMI 5 mM glucose + 10% dialyzed FBS; 48 h; 0.00702 µM
measure name: cell viability (%)

INSERT INTO results (compound, test_result) VALUES
  ('CC/1=C(/N2[C@H](SC1)[C@H](NC(=O)C(N)C3=CC=CC=C3)C2=O)C(O)=O (stereo partly specified)', 123),
  ('CC(O)C1C2C(C)\C(=C(/N2C1=O)C(O)=O)SC3CNC(C3)C(=O)N(C)C (stereo unspecified)', 72.6),
  ('CCOC(=O)Nc1ccc(NCc2ccc(F)cc2)nc1N', 110),
  ('CN1CCN(CCCN2c3ccccc3Sc3ccc(C(F)(F)F)cc32)CC1', 105),
  ('NC(=O)NO', 92.6),
  ('Cc1onc(-c2ccccc2)c1C(=O)N[C@@H]1C(=O)N2[C@@H]1SC(C)(C)[C@@H]2C(=O)[O-].[Na+]', 115);

====

# Test system: NOMO1
# protocol summary: cell viability relative to DMSO control; higher = less cytotoxic
# experimental parameters: RPMI 5 mM glucose + 10% FBS; 48 h; 0.0211 µM
measure name: cell viability (%)

INSERT INTO results (chemical_smiles, measure_name, unit_name, test_result) VALUES
  ('COc1cc(N2CCC(N(C)C)CC2)ccc1Nc1ncc(Cl)c(Nc2ccccc2P(C)(C)=O)n1', 'cell viability', '%', 118),
  ('O=C1NC(=O)/C(=C/c2ccc(-c3ccc(F)cc3O)o2)S1', 'cell viability', '%', 114),
  ('N#C[C@H](O[C@@H]1O[C@H](CO[C@@H]2O[C@H](CO)[C@@H](O)[C@H](O)[C@H]2O)[C@@H](O)[C@H](O)[C@H]1O)c1ccccc1', 'cell viability', '%', 89.4),
  ('COC(=O)\C1=C\CCN(C)C1', 'cell viability', '%', 91.3),
  ('c1ccc(-c2oc3ncnc(NC[C@@H]4CCCO4)c3c2-c2ccccc2)cc1', 'cell viability', '%', 114),
  ('CCOc1ccc(Cc2cc([C@@H]3O[C@H](CO)[C@@H](O)[C@H](O)[C@H]3O)ccc2Cl)cc1', 'cell viability', '%', 125),
  ('CC(C)(O)/C=C\C(=O)[C@](C)(O)[C@H]1[C@H](O)C[C@]2(C)[C@@H]3CC=C4[C@@H](C=C(O)C(=O)C4(C)C)[C@]3(C)C(=O)C[C@@]12C', 'cell viability', '%', 122);

====

# Tested on: SEM cells
# protocol summary: AUC of viability dose-response curve (% viability x log10 dose units); higher = less sensitive
# experimental parameters: HPLM + 10% dialyzed FBS; 48 h
Each record here notes measured AUC of viability dose-response curve.
measure name: AUC of viability dose-response curve

INSERT INTO measurements (compound, test_system, test_result) VALUES
  ('CC(C)C[C@H](NC(=O)[C@@H](O)[C@H](N)Cc1ccccc1)C(=O)O', 'SEM cells', 453),
  ('Nc1ncnc2c1c(-c1cccc(OCc3ccccc3)c1)cn2C1CC(CN2CCCC2)C1 (stereo not given)', 'SEM cells', 388),
  ('COc1cccc2c1[C@]13CCN(CC4CC4)[C@H](C2)[C@]1(OC)CCC(=O)C3', 'SEM cells', 422),
  ('C[C@@H](O)[C@@H]1NC(=O)[C@H](CCCCN)NC(=O)[C@@H](Cc2c[nH]c3ccccc23)NC(=O)[C@H](Cc2ccccc2)NC(=O)[C@@H](NC(=O)[C@H](N)Cc2ccccc2)CSSC[C@@H](C(=O)N[C@H](CO)[C@@H](C)O)NC1=O', 'SEM cells', 422),
  ('NC(=O)Nc1cc(-c2cccc(F)c2)sc1C(=O)N[C@H]1CCCNC1', 'SEM cells', 188);

====

# Test system: SEM cells
# protocol summary: cell viability relative to DMSO control; higher = less cytotoxic
# experimental parameters: RPMI 5 mM glucose + 10% FBS; 48 h; 0.0632 µM
measure name: cell viability (%)

INSERT INTO assay_data (chemical_smiles, test_result) VALUES
  ('OC1=CC2=C(C(=C1)O)C(=O)\C(=C(/O2)C3=CC(=C(O)C=C3)O)O', 99.6),
  ('CO/N=C(\C(=O)N[C@@H]1C(=O)N2C(C(=O)OCOC(=O)C(C)(C)C)=C(/C=C\c3scnc3C)CS[C@H]12)c1csc(N)n1', 89),
  ('CO/N=C(/C(=O)N[C@@H]1C(=O)N2C(C(=O)O)=C(CSC(=O)c3ccco3)CS[C@H]12)c1csc(N)n1', 97.8),
  ('C1CCN2C[C@H]3C[C@H](\C=C/4CCCN[C@@H]34)[C@H]2C1', 103);

====

# System: SEM cells
# protocol summary: cell viability relative to DMSO control; higher = less cytotoxic
# experimental parameters: HPLM + 10% dialyzed FBS; 48 h; 1.71 µM
measure name: cell viability (%)

INSERT INTO results (compound, measure_name, test_result) VALUES
  ('C[S+](=O)([O-])c1ccc(Oc2cc(F)cc(C#N)c2)c2c1[C@H](O)C(F)(F)C2', 'cell viability', 106),
  ('C[C@H]1COC/2=C1/C(=O)C(=O)C3=C4CCCC(C)(C)C4=CC=C23', 'cell viability', 106),
  ('CNC(=O)N1\N=C(\C2=CC=C(N)C=C2)C3=CC4=C(OCO4)C=C3CC1C (stereo unspecified)', 'cell viability', 129),
  ('Cn1cc(C[C@@H](N)C(=O)O)c2ccccc21', 'cell viability', 111),
  ('CC(C)Oc1ccc(C(=O)N[C@H](CNC(=O)CN(C)C)Cc2ccc(-c3cn4cccc([C@H](C)O)c4n3)cc2)cc1Cl', 'cell viability', 44.5),
  ('CN1CCN(CCCN2c3ccccc3Sc3ccc(C(F)(F)F)cc32)CC1', 'cell viability', 105),
  ('OCc1ccc(-c2ccc(-c3ccc(CO)s3)o2)s1', 'cell viability', 103),
  ('CCNC(=O)Nc1ccc2ncc(Nc3ccc(C)cc3)nc2n1', 'cell viability', 108),
  ('N#C/N=C(\NCCCCCCOc1ccc(Cl)cc1)Nc1ccncc1', 'cell viability', 8.04),
  ('CCOC1=CC=CC=C1N\2C(=O)C3=C(C=CC=C3)\N=C2C(C)N4CCN(CC4)C(=O)COC5=CC=C(Cl)C=C5 (stereo unspecified)', 'cell viability', 26.1),
  ('CC(NCCc1ccc(O)cc1)C(O)c1ccc(O)cc1 (stereo unspecified)', 'cell viability', 98.7),
  ('Cc1cccc(/C=N/Nc2cc(N3CCOCC3)nc(OCCc3ccccn3)n2)c1', 'cell viability', 72.8),
  ('COc1cc(C(=O)NS(=O)(=O)c2ccccc2C)ccc1Cc1cn(C)c2ccc(NC(=O)OC3CCCC3)cc12', 'cell viability', 70),
  ('O=c1[nH]c(=O)n(C2CCCO2)cc1F (stereo unspecified)', 'cell viability', 111),
  ('CCN1CCCC1CNC(=O)c1cc([S+](N)(=O)[O-])ccc1OC (stereo unspecified)', 'cell viability', 107),
  ('COC1=CC=C2CN(C)CC[C@@]34\C=C/[C@H](O)C[C@@H]3OC1=C24', 'cell viability', 126),
  ('O=[S+]([O-])(c1cccc2cnccc12)N1CCCNCC1', 'cell viability', 113),
  ('CC(C)(C)[C@H](NC(=O)c1ccc(N)c(Cl)c1)C(=O)N1CCC[C@H]1C(=O)N[C@H](C#N)CC(=O)O', 'cell viability', 113),
  ('CCOc1ccc(Cc2cc([C@@H]3O[C@H](CO)[C@@H](O)[C@H](O)[C@H]3O)ccc2Cl)cc1', 'cell viability', 121),
  ('COc1ncc(-c2ccc3c(Nc4cc(Oc5cc(F)cc(F)c5)cc(C(=O)O)c4)c([S+](=O)([O-])NC4CC4)cnc3c2)c(OC)n1', 'cell viability', 82.2),
  ('CN(C)/N=N/c1nc[nH]c1C(N)=O', 'cell viability', 119),
  ('C[C@@H](O)[C@@H]1NC(=O)[C@H](CCCCN)NC(=O)[C@@H](Cc2c[nH]c3ccccc23)NC(=O)[C@H](Cc2ccccc2)NC(=O)[C@@H](NC(=O)[C@H](N)Cc2ccccc2)CSSC[C@@H](C(=O)N[C@H](CO)[C@@H](C)O)NC1=O', 'cell viability', 91.2),
  ('Cc1onc(-c2ccccc2)c1C(=O)N[C@@H]1C(=O)N2[C@@H]1SC(C)(C)[C@@H]2C(=O)[O-].[Na+]', 'cell viability', 93.4),
  ('CCN(c1ccccc1)c1cc(NC)[n+](C)c(C)n1', 'cell viability', 116),
  ('NC(=O)OCC(COC(N)=O)c1ccccc1', 'cell viability', 104),
  ('O=C1NC(=O)/C(=C/c2ccc(-c3ccc(F)cc3O)o2)S1', 'cell viability', 102),
  ('CC1(C)C(N(O)C(=O)Nc2ccc(Cl)cc2)N(c2ccc(Cl)cc2)C(=O)N1CC(=O)N/N=C/C=C/c1ccc([N+](=O)[O-])o1 (stereo unspecified)', 'cell viability', 117),
  ('CN(C)C(=O)C(CCN1CCC(O)(c2ccc(Cl)cc2)CC1)(c1ccccc1)c1ccccc1', 'cell viability', 117),
  ('COC(=O)N1CC2(CC2)C[C@H](C(=O)NO)[C@H]1C(=O)N1CCN(c2ccccc2)CC1', 'cell viability', 40.3),
  ('C[C@](N)(Cc1ccc(O)c(O)c1)C(=O)O', 'cell viability', 81.7),
  ('C[C@H]1O[C@H](C[C@H](O)[C@@H]1O)O[C@H]2[C@@H](O)C[C@@H](O[C@@H]2C)O[C@H]3[C@@H](O)C[C@@H](O[C@@H]3C)O[C@H]4CC[C@@]5(C)[C@H](CC[C@@H]6[C@@H]5C[C@@H](O)[C@]7(C)[C@H](CC[C@]67O)C/8=C/C(=O)OC8)C4', 'cell viability', 7.74);
